Test: Solubility in water (aqueous solution obtained)
Type: physicochemical
Details: hydrochloride / dissolved with aqueous hydrochloric acid and distilled water
Starred links: 1 amine or outer side, 2 acyl side, 3 side chain; linkers in the order of their positions; H or OH if unused. Positions of bridges follow the written chain, without caps; N, C: chain ends. Non-standard residues stand in square brackets, D forms with d. Residues, ends and D or L forms follow the SMILES beside them. ξ: configuration not given here. *: point of attachment. ξNMePhe(4-NMe2) = CNC(Cc1ccc(N(C)C)cc1)C(=O)O; X1 = CN(C)CCOC=C1CN([*:1])C(C(=O)[*:2])CC1=O; X7 = CN(C)CCCSCC1CN([*:1])C(C(=O)[*:2])CC1=O; Picolinoyl(3-OH) = O=C(c1ncccc1O)*; NMeF = CN[CH](Cc1ccccc1)C(=O)O; Phg = N[CH](C(=O)O)c1ccccc1; Abu = CC[CH](N)C(=O)O
Would you kindly list Solubility: concentration of aqueous solution, in the form of hydrochloride for each of these compounds?
Give bare numbers, in %.

>>> readout_value("CCC1NC(=O)C(NC(=O)c2ncccc2O)C(C)OC(=O)C(c2ccccc2)NC(=O)C2CC(=O)C(CSCCCN(C)C)CN2C(=O)C(Cc2ccccc2)N(C)C(=O)C2CCCN2C1=O (stereo not drawn) [product AB] ({Picolinoyl(3-OH)}-T[Abu]P[NMeF][X7][Phg]; ester 1-C; configuration not given here)")
10
>>> readout_value("CCC1NC(=O)C(NC(=O)c2ncccc2O)C(C)OC(=O)C(c2ccccc2)NC(=O)C2CC(=O)C(=COCCN(C)C)CN2C(=O)C(Cc2ccc(N(C)C)cc2)N(C)C(=O)C2CCCN2C1=O (stereo not drawn) [product AAQ] ({Picolinoyl(3-OH)}-T[Abu]P[ξNMePhe(4-NMe2)][X1][Phg]; ester 1-C; configuration not given here)")
1

// next item, Solubility: concentration of aqueous solution, in the form of hydrochloride requested
Entry CC1=CC(O)CC(=O)Cc2nc(co2)C(=O)N2CCC([S+]([O-])CCN(C)C)C2C(=O)OC(C(C)C)C(C)C=CC(=O)NCC=C1 (stereo not drawn) [Example 4] : reported Solubility: concentration of aqueous solution, in the form of hydrochloride = ?
3.7
